Numbers sourced from PubChem BioAssay (NCI).

system: CAKI-1 renal; assay: NCI tumour cell line growth inhibition, 48 h
Property label: TGI

Compound: COc1cc2ncn(-c3cc(OCc4ccccc4Cl)c(C(N)=O)s3)c2cc1OC
Subject of test: CAKI-1 renal
Property label: TGI
Result: > 25 µM
//
Compound: O=C1CC(c2ccco2)C2(C(=O)NC(=O)NC2=O)C(c2ccco2)C1 (stereo not given)
Subject of test: CAKI-1 renal
Property label: TGI
Result: > 75 µM
//
Compound: COc1ccc(C(=O)Nc2ncc(Cc3ccc(Cl)cc3)s2)cc1
Subject of test: CAKI-1 renal
Property label: TGI
Result: > 73.1 µM
//
Compound: COc1ccc(NC(=O)Nc2n[nH]c3ccccc23)cc1
Subject of test: CAKI-1 renal
Property label: TGI
Result: > 100 µM
//
Compound: CCN(CC)CCOC(c1cc(OC)ccc1OC)c1ccc2n1-c1ccccc1OC2 (stereo not given)
Subject of test: CAKI-1 renal
Property label: TGI
Result: 30 µM
//
Compound: CC(=O)C(CN1CCCCC1)C(c1ccccc1)c1c(O)c2ccccc2oc1=O (stereo not given)
Subject of test: CAKI-1 renal
Property label: TGI
Result: > 100 µM
//
Compound: CCOC(=O)CCC(NC(=O)c1ccc(OCc2nc3cc(C(F)(F)F)ccc3nc2-c2ccccc2)cc1)C(=O)OCC (stereo not given)
Subject of test: CAKI-1 renal
Property label: TGI
Result: > 100 µM
//
Compound: C[C@@H]1CC[C@@H]2[C@@H]1[C@H](OC(=O)/C=C/c1ccccc1)[C@]1(c3ccccc3)C[C@@H](OC(=O)CO)[C@@]2(C)O1
Subject of test: CAKI-1 renal
Property label: TGI
Result: 18.4 µM
//
Compound: C=CC1=CSNN1
Subject of test: CAKI-1 renal
Property label: TGI
Result: > 100 µM
//
Compound: O=C(c1cccs1)c1c(C(F)(F)F)n([O-])c2ccccc2[n+]1=O
Subject of test: CAKI-1 renal
Property label: TGI
Result: 2.36 µM

###

system: CAKI-1 renal; test: NCI tumour cell line growth inhibition, 48 h
Property label: GI50

Compound: COC(=O)C1OC(O[C@H]2CCC3(C)C(CCC4(C)C3CC=C3C5CC(C)(C)CCC5(C(=O)O)CC[C@]34C)C2(C)C)C(O)C(OC2OC(CO)C(O)C(O)C2O)C1O (stereo partly specified)
Result: 12.2 µM
//
Compound: O=C(CSc1nc2ccc([N+](=O)[O-])cc2[nH]1)Nc1ccc(F)c(Cl)c1
Result: 1.95 µM
//
Compound: C1COCCN1.C1COCCN1.N.N.[Cl-].[Pt+2]
Result: 54.1 µM
//
Compound: Cc1ccn2c3c(c(C(=O)O)c2c1)C(=O)c1ccccc1C3=O
Result: > 100 µM
//
Compound: O=[Se]([O-])c1ccccc1.O=[Se]([O-])c1ccccc1.[OH3+].[OH3+].[Pt+2]
Result: 11 µM
//
Compound: COc1cc(/C=C\[N+](=O)[O-])ccc1O
Result: 2.85 µM

###

system: SK-MEL-5 melanoma; test: NCI tumour cell line growth inhibition, 48 h

Compound: Cc1cccc(N2C(=O)C3ON(C(C(N)=O)c4ccccc4)C(c4c5ccccc5c(Cl)c5ccccc45)C3C2=O)c1C (stereo unspecified)
Subject of test: SK-MEL-5 melanoma
TGI: 13.9 µM
//
Compound: C=CC1=CSNN1
Subject of test: SK-MEL-5 melanoma
TGI: > 100 µM
//
Compound: Cc1ccc(-c2cc(N)n(-c3nc4c([nH]3)c(=O)n(C)c(=O)n4C)n2)cc1
Subject of test: SK-MEL-5 melanoma
TGI: 17 µM
//
Compound: CN(C)/C(=N/C(=S)Nc1ccccc1)SCc1ccccc1
Subject of test: SK-MEL-5 melanoma
TGI: > 100 µM
//
Compound: CCCCCCCCCC[C@@H](O)[C@H]1CC[C@H]([C@H]2CC[C@H]([C@H](O)CCCCCCCCCC[C@@H]3CC(CC(C)=O)C(=O)O3)O2)O1 (stereo partly specified)
Subject of test: SK-MEL-5 melanoma
TGI: > 21.5 µM
//
Compound: CC1C(c2cc(C(C)(C)C)c(O)c(C(C)(C)C)c2)c2cc3c(cc2OC1N1CCOCC1)OCO3 (stereo unspecified)
Subject of test: SK-MEL-5 melanoma
TGI: 47.3 µM
//
Compound: Cc1c(Cl)cccc1NC(=O)C(=O)C1C(=O)CC(C)(C)CC1=O
Subject of test: SK-MEL-5 melanoma
TGI: > 100 µM
//
Compound: COC1O[C@H]2CCN(C(=O)OCc3ccccc3)[C@H]2[C@H]1OCc1ccccc1 (stereo partly specified)
Subject of test: SK-MEL-5 melanoma
TGI: 64.6 µM
//
Compound: C=CCSC[C@H](NC(=O)COc1ccccc1)C(=O)NC(C(=O)OCc1ccc([N+](=O)[O-])cc1)=C(C)C
Subject of test: SK-MEL-5 melanoma
TGI: > 100 µM
//
Compound: FC(F)(F)c1nc(-c2ccccc2Cl)[nH]c1C(F)(F)F
Subject of test: SK-MEL-5 melanoma
TGI: 0.833 µM
//
Compound: O=c1[nH]cnc2c(C3OC(CO)C(O)C3O)c[nH]c12 (stereo unspecified)
Subject of test: SK-MEL-5 melanoma
TGI: > 100 µM
//
Compound: Oc1ccccc1C(c1cc2c(cc1O)OCO2)N1CCOCC1 (stereo unspecified)
Subject of test: SK-MEL-5 melanoma
TGI: 31.7 µM
//
Compound: CCn1c(-c2nonc2N)nc2c(C#CCN)ncc(OCCCN)c21
Subject of test: SK-MEL-5 melanoma
TGI: > 25 µM
//
Compound: COc1cc2ncn(-c3cc(OCc4ccccc4Cl)c(C(N)=O)s3)c2cc1OC
Subject of test: SK-MEL-5 melanoma
TGI: 3.13 µM
//
Compound: N/C(CC(=O)Nc1cc(C(F)(F)F)ccc1Cl)=N\O
Subject of test: SK-MEL-5 melanoma
TGI: > 100 µM
//
Compound: Clc1cc(N/N=C(/c2ccccc2)c2ncccn2)ncn1
Subject of test: SK-MEL-5 melanoma
TGI: > 100 µM
//
Compound: Cc1ccccc1C(C#N)C(=O)C(=O)Nc1nc([N+](=O)[O-])cs1 (stereo unspecified)
Subject of test: SK-MEL-5 melanoma
TGI: > 100 µM
//
Compound: O=C(NNc1nc2c(F)cccc2n2cccc12)c1cnccn1
Subject of test: SK-MEL-5 melanoma
TGI: 4.56 µM
//
Compound: COc1ccc(Nc2[nH]c(C(C)=O)c(N)c2C(=S)Nc2ccccc2)cc1
Subject of test: SK-MEL-5 melanoma
TGI: > 100 µM
//
Compound: COc1ccc(C2C(Cl)C(=O)N2NC(=O)c2ccc(NC(C)=O)cc2)cc1 (stereo unspecified)
Subject of test: SK-MEL-5 melanoma
TGI: > 100 µM
//
Compound: C=CCN(CC=C)Cn1c(=S)sc2ccccc21
Subject of test: SK-MEL-5 melanoma
TGI: > 100 µM

###

tested on: HOP-92 NSCLC; test: NCI tumour cell line growth inhibition, 48 h
Consider the following partition of reported TGI into named classes: lower band = under 30 µM, central band = from 30 µM up to 40 µM, upper band = 40 µM and over

Molecule: CC(C)(C)OC(=O)n1cc(CNC(=S)Nc2ccccc2)c2ccccc21
Answer label: lower band
--
Molecule: COc1cc(C(=O)NC2c3ccccc3-c3ccccc32)c(N)cc1OCc1ccccc1
Answer label: central band
--
Molecule: Nc1n[nH]c2ccc([C@@H]3Nc4ccc5[nH]ncc5c4[C@H]4[C@H]5CCC(C5)[C@H]43)cc12
Answer label: lower band
--
Molecule: CC1(C)N=C(N)N=C(N)N1c1ccc(CCCCc2ccc(S(=O)(=O)F)cc2)cc1
Answer label: lower band
--
Molecule: COc1ccc(-c2c(C#N)c(N)n(C3OC(CO)C(O)C(O)C3O)c(=S)c2C#N)cc1 (stereo unspecified)
Answer label: upper band
--
Molecule: COC1(C)CC2N(C(=O)c3ccccc3)N=C(c3ccccc3)CC2(C)O1 (stereo unspecified)
Answer label: upper band
--
Molecule: COC(=O)C1(Cc2ccccc2)Cc2cc3c(cc2C1=O)CCC3 (stereo unspecified)
Answer label: upper band
--
Molecule: Clc1nc(Cl)nc(NC23CC4CC(CC(C4)C2)C3)n1
Answer label: central band
--
Molecule: O=C(C#Cc1c[nH]c(=O)[nH]c1=O)c1ccccc1Cl
Answer label: central band
--
Molecule: OCC1CCCC(n2cnc3c(=S)nc[nH]c32)O1 (stereo unspecified)
Answer label: upper band
--
Molecule: Cc1c(Cl)cccc1NC(=O)C(=O)C1C(=O)CC(C)(C)CC1=O
Answer label: upper band
--
Molecule: COC(=O)C1=C(C(=O)OC)C2OC1C1C2C2(C)C(C)=C(C)C1(C)S2=O (stereo unspecified)
Answer label: central band
--
Molecule: COc1ccc(N2C(=O)C3c4[nH]c5ccc([N+](=O)[O-])cc5c4C4CCC(C(C)(C)C)CC4C3C2=O)cc1 (stereo unspecified)
Answer label: upper band
--
Molecule: CC(C)=CCN1CC(C)C(=O)Nc2cc(Cl)ccc21 (stereo unspecified)
Answer label: lower band
--
Molecule: CC(C)CC(N)C(=O)OCN1C(=O)C2C3C=CC(C2C1=O)C1C2C(=O)N(COC(=O)C(N)CC(C)C)C(=O)C2C31 (stereo unspecified)
Answer label: upper band
--
Molecule: c1cc(-c2cnc(-c3ccc4c(c3)CCCO4)o2)ccn1
Answer label: upper band
--
Molecule: CCn1cc(C(c2ccc(Cl)cc2)n2ccnc2)c2cc(Br)ccc21 (stereo unspecified)
Answer label: lower band
--
Molecule: C#Cc1cnc(=O)n(C2CC(O)C(CO)O2)c1 (stereo unspecified)
Answer label: upper band
--
Molecule: O=C(/C=C/c1ccccc1)/C=C/c1ccccc1O
Answer label: upper band
--
Molecule: Cc1ccccc1C1OC1C(=O)c1ccccc1N (stereo unspecified)
Answer label: upper band
--
Molecule: N#C/C(=C\NC(=S)Nc1ccc(S(=O)(=O)Nc2ccccn2)cc1)C(N)=O
Answer label: upper band
